# System: P12-Ichikawa
# protocol.details: cell viability relative to DMSO control; higher = less cytotoxic
# assay.context: RPMI 5 mM glucose + 10% dialyzed FBS; 48 h; 0.00702 µM
Quick list: cell viability per entry.
Report only the number, with the unit % understood.

// solved cases for cell viability follow
What reported cell viability corresponds to `COC(=O)CCC1=C(C)C2=CC3=NC(=CC4=C(C)C(=C([NH]4)C=C\5N=C(C=C1[NH]2)\C(=C5C)CCC(O)=O)C=C)\C6=C\C=C(/[C@@H](C(=O)OC)[C@@]36C)C(=O)OC` on P12-Ichikawa? 97.8

Another compound to check: `CC(C)C[C@H](CC(=O)O)C(=O)N[C@@H](Cc1c[nH]c2ccccc12)C(=O)N[C@@H](C)c1ccccc1` 101

Another compound to check: `COc1c(N2C[C@@H]3CCCN[C@@H]3C2)c(F)cc2c(=O)c(C(=O)O)cn(C3CC3)c12.Cl.O` 107

Another compound to check: `CC(=O)N(O)CCCCCNC(=O)CCC(=O)N(O)CCCCCNC(=O)CCC(=O)N(O)CCCCCN.C[S+](=O)([O-])O` 114

Further cases:
What reported cell viability corresponds to `COc1cc2c(cc1OC)CN(CCc1ccc(NC(=O)c3cccc4c(=O)c5cccc(OC)c5[nH]c34)cc1)CC2` on P12-Ichikawa? 112

Another compound to check: `Nc1cc(N2CCCCC2)nc(N)[n+]1[O-]` 111

Another compound to check: C=C1CCC2[C@](C)(CO)C(O)CC[C@]2(C)C1C/C=C1/C(=O)OCC1O (some centres undefined) 124

Another compound to check: `COCCCC/C(=N\OCCN)c1ccc(C(F)(F)F)cc1` 76.9

Another compound to check: `CN(C)C(=O)[C@H](O)[C@H](Cc1ccccc1)NC(=O)c1cc2cc(Cl)ccc2[nH]1` 118

* * *

# Tested on: SEM cells
# protocol.details: AUC of viability dose-response curve (% viability x log10 dose units); higher = less sensitive
# assay.context: HPLM + 10% dialyzed FBS; 48 h
Quick list: AUC of viability dose-response curve per entry.

Need AUC of viability dose-response curve, item `C[C@]12CC[C@H]3[C@@H](CC[C@@]45O[C@@H]4C(O)=C(C#N)C[C@]35C)[C@@H]1CC[C@@H]2O` 446

* * *

Quick list: cell viability per entry.
# Test system: P12-Ichikawa
# protocol.details: cell viability relative to DMSO control; higher = less cytotoxic
# assay.context: HPLM + 10% dialyzed FBS; 48 h; 5.12 µM
Report only the number, with the unit % understood.

What reported cell viability corresponds to `Cc1noc(N[S+](=O)([O-])c2ccc(N)cc2)c1C` on P12-Ichikawa? 109

Another compound to check: `CN(C[C@@H]1COCCO1)[S+]([O-])(=O)NC2=CC3=C(C=C2)\C=C/C4=C(C=C(C=N4)C5=C[N](C)N=C5)C3=O` 54.7

Another compound to check: `CC1(C)CCC(C)(C)c2cc(NC(=O)c3ccc(C(=O)O)cc3)ccc21` 106

Further cases:
What reported cell viability corresponds to `O=C1\C=C(OC2=C(C=CC=C12)C3=CC=CC4=C3SC5=C4C=CC=C5)\N6CCOCC6` on P12-Ichikawa? 129

Another compound to check: `C/C=C(\C)C(=O)N[C@@H](c1ccccc1)[C@@H](O)C(=O)O[C@H]1C[C@@]2(O)[C@@H](OC(=O)c3ccccc3)[C@@H]3[C@]4(OC(C)=O)CO[C@@H]4C[C@H](O)[C@@]3(C)C(=O)[C@H](OC(C)=O)C(=C1C)C2(C)C` 19

Another compound to check: `CCC(=O)N1CCN(CC1)C2=C(C=C(C=C2)N3C(=O)\C=C/C4=C3C5=CC(=CC=C5N=C4)C6=CN=C7C=CC=CC7=C6)C(F)(F)F` 73.8

Another compound to check: `COCCCC/C(=N\OCCN)c1ccc(C(F)(F)F)cc1` 80.9

Another compound to check: C=C1CCC2[C@](C)(CO)C(O)CC[C@]2(C)C1C/C=C1/C(=O)OCC1O (stereo partly drawn) 106

* * *

Quick list: cell viability per entry.
# Test system: SEM cells
# protocol.details: cell viability relative to DMSO control; higher = less cytotoxic
# assay.context: HPLM + 10% dialyzed FBS; 48 h; 5.12 µM
Just so you know, I need the unit written after the number.

// solved cases for cell viability follow
Need cell viability, item `CCC[C@H](Nc1nc(-c2ccc(NC(=O)NCC)c(OC)c2)ncc1C)c1cccnc1` 12.9%

Another compound to check: `CC[C@H]1OC(=O)[C@H](C)[C@@H](O[C@H]2C[C@@](C)(OC)[C@@H](O)[C@H](C)O2)[C@H](C)[C@@H](O[C@@H]2O[C@H](C)C[C@H](N(C)C)[C@H]2O)[C@](C)(O)C[C@@H](C)/C(=N\OCOCCOC)[C@H](C)[C@@H](O)[C@]1(C)O` 85.2%

Another compound to check: `Cn1cnc(N)c2ncnc1-2` 32%

Another compound to check: `FC1=CC2=C3[N](CCN(CC3=C1)C(=O)N4CCCCC4)C=C2C/5=C(C(=O)NC5=O)\C6=CN=C7C=CC=C[N]67` 8.69%

Another compound to check: C=C1CCC2[C@](C)(CO)C(O)CC[C@]2(C)C1C/C=C1/C(=O)OCC1O (stereo partly drawn) 103%

Another compound to check: `C[S+](=O)([O-])OCCCCO[S+](C)(=O)[O-]` 109%

Further cases:
Need cell viability, item `CCOc1cc(C(=O)Nc2ccc(Cl)c(-c3nc4ccccc4[nH]3)c2)cc(OCC)c1OCC` 85.2%

Another compound to check: `CCCCN1CCC(CNC(=O)c2c3n(c4ccccc24)CCCO3)CC1` 108%

* * *

Quick list: cell viability per entry.
# Tested on: SEM cells
# protocol.details: cell viability relative to DMSO control; higher = less cytotoxic
# assay.context: HPLM + 10% dialyzed FBS; 48 h; 0.0632 µM
Report only the number, with the unit % understood.

What reported cell viability corresponds to COc1cc2c(cc1O)CCC1C2CC[C@@]2(C)C1CC[C@@H]2O (some centres undefined) on SEM cells? 108

Another compound to check: `CC(=O)N(O)CCCCCNC(=O)CCC(=O)N(O)CCCCCNC(=O)CCC(=O)N(O)CCCCCN.C[S+](=O)([O-])O` 25.3

Another compound to check: `O=c1oc2cc(O)ccc2s1` 109

Another compound to check: `c1ccc2c(CN3CCNCC3)cccc2c1` 100

Another compound to check: `Cc1nc(-c2ccc(-c3ccc(C(=O)N4CCc5cc6c(cc54)C4(CCN(C)CC4)CO6)cc3)c(C)c2)no1` 119

Another compound to check: `CCC(=O)O[C@@]1(CC[C@H]2[C@@H]3CCC/4=C/C(=O)CC[C@]4(C)[C@H]3CC[C@]12C)C(=O)CO` 109

Another compound to check: `COC(=O)[C@H](Cc1ccccc1)NC(=O)[C@@H](N)CC(=O)O` 130

Another compound to check: `CC[C@H](C)C(=O)O[C@H]1C[C@@H](C)\C=C2\C=C/[C@H](C)[C@H](CC[C@@H]3C[C@@H](O)CC(=O)O3)[C@@H]12` 90.3

Another compound to check: `COc1cccc(N(C)C(=S)Oc2ccc3c(c2)CCCC3)n1` 91.2

* * *

# Tested on: P12-Ichikawa
# protocol.details: cell viability relative to DMSO control; higher = less cytotoxic
# assay.context: RPMI 5 mM glucose + 10% dialyzed FBS; 48 h; 5.12 µM
Quick list: cell viability per entry.
Report only the number, with the unit % understood.

// solved cases for cell viability follow
Need cell viability, item `COc1c(N2C[C@@H]3CCCN[C@@H]3C2)c(F)cc2c(=O)c(C(=O)O)cn(C3CC3)c12.Cl.O` 53.4

Another compound to check: `CCC(=O)NC[C@H](Cc1ccc(OCCc2nc(-c3ccccc3)oc2C)cc1)N/C(C)=C\C(=O)c1ccc(C(F)(F)F)cc1` 62.1

Another compound to check: `C[C@H](NC(=O)[C@@H](O)c1cc(F)cc(F)c1)C(=O)N[C@@H]1C(=O)N(C)c2ccccc2-c2ccccc21` 95.8

Further cases:
Need cell viability, item `O=C(O)c1cccnc1` 76.5

Another compound to check: Clc1ccc(CCC(Cn2ccnc2)Sc2c(Cl)cccc2Cl)cc1 (stereo not given) 89.1

* * *

# Tested on: NOMO1
# protocol.details: cell viability relative to DMSO control; higher = less cytotoxic
# assay.context: HPLM + 10% dialyzed FBS; 48 h; 0.00702 µM
Quick list: cell viability per entry.
Report only the number, with the unit % understood.

// solved cases for cell viability follow
Need cell viability, item `CCCCCN(C)CCC(O)(P(=O)([O-])O)P(=O)(O)O` 89

Another compound to check: `NC(=O)c1nnn(Cc2cc(Cl)c(C(=O)c3ccc(Cl)cc3)c(Cl)c2)c1N` 124

Another compound to check: `Cc1ccc(C(=O)Nc2ccc([S+](=O)([O-])O)c3cc([S+](=O)([O-])O)cc([S+](=O)([O-])O)c23)cc1NC(=O)c1cccc(NC(=O)Nc2cccc(C(=O)Nc3cc(C(=O)Nc4ccc([S+](=O)([O-])O)c5cc([S+](=O)([O-])O)cc([S+](=O)([O-])O)c45)ccc3C)c2)c1` 96.9

Another compound to check: `CN(CC(=O)N(Cc1ccc(C2CCCCC2)cc1)c1ccc(C(=O)O)c(O)c1)[S+](=O)([O-])c1c(F)c(F)c(F)c(F)c1F` 104

Another compound to check: `CO[C@H]1C[C@@H]2CC[C@@H](C)[C@@](O)(O2)C(=O)C(=O)N2CCCC[C@H]2C(=O)O[C@H]([C@@H](C)C[C@@H]2CC[C@@H](O)[C@H](OC)C2)CC(=O)[C@H](C)/C=C(\C)[C@@H](O)[C@@H](OC)C(=O)[C@H](C)C[C@H](C)/C=C/C=C/C=C/1C` 112

Another compound to check: `CC(C)[C@]12O[C@H]1[C@@H]3O[C@@]34[C@@]5(C)CC\C6=C(COC6=O)/[C@@H]5C[C@@H]7O[C@]47[C@@H]2O` 7.37

Another compound to check: `COc1cc2c(cc1OC)CN(CCc1ccc(NC(=O)c3cccc4c(=O)c5cccc(OC)c5[nH]c34)cc1)CC2` 114

Another compound to check: `N#Cc1cc(NC(=O)Nc2nnc(-c3ccncc3)s2)ccc1-c1cn[nH]c1` 115

Further cases:
Need cell viability, item `N#Cc1c(N(CC(=O)[O-])CC(=O)[O-])sc(C(=O)[O-])c1CC(=O)[O-].O.O.O.O.O.O.O.[Sr+2].[Sr+2]` 150

Another compound to check: CCN1\C=C(C(O)=O)/C(=O)C2=C1C(=C(N3CCNC(C)C3)C(=C2)F)F (stereo not given) 114

Another compound to check: `CCC(=O)N1CCN(CC1)C2=C(C=C(C=C2)N3C(=O)\C=C/C4=C3C5=CC(=CC=C5N=C4)C6=CN=C7C=CC=CC7=C6)C(F)(F)F` 89.2

Another compound to check: `CCC(=O)O[C@@]1(CC[C@H]2[C@@H]3CCC/4=C/C(=O)CC[C@]4(C)[C@H]3CC[C@]12C)C(=O)CO` 103

Another compound to check: `CCOc1ccccc1N/N=C1/C(=O)N(c2nc(-c3ccccc3)cs2)N=C1C` 119
